tested on: 885724-159-R-J1-PDC complex spheroid viability; experiment: Anticancer human tumor 885724-159-R-J1-PDC patient-derived pancreatic adenocarcinoma cell line growth inhibition [GQUAD]; conditions: curve of first compound; second compound 0.0316 µM
What pIC50 was measured for each of the following?
Notebook: values listed as pIC50 are -log10 of the concentration (mol/L).

Request - read-out pIC50 | tested on 885724-159-R-J1-PDC complex spheroid viability | compound C#Cc1c(F)ccc2cc(O)cc(-c3ncc4c(N5CC6CCC(C5)N6)nc(OCC56CCCN5CC(F)C6)nc4c3F)c12 (stereo not given) + CN(C)c1ccc(Nc2c3ccc(NC(=O)CCN4CCCC4)cc3nc3cc(NC(=O)CCN4CCCC4)ccc23)cc1 5.38

And the next one, CC(C)(O)C1CCC(Nc2ccc3ncc(-c4cccc(C(F)(F)F)c4)n3n2)CC1 (stereo not given) + CN(C)c1ccc(Nc2c3ccc(NC(=O)CCN4CCCC4)cc3nc3cc(NC(=O)CCN4CCCC4)ccc23)cc1 ? 5.56

###

test system: 885724-159-R-J1-PDC complex spheroid viability; assay: Anticancer human tumor 885724-159-R-J1-PDC cell line growth inhibition [GQUAD]; conditions: second compound 0.0316 µM; first compound 0.1 µM; stronger effect = lower value;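 note: spheroids exposed to agents for seven days before readout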;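 for viability, T/C: percent of vehicle control viability where 100% = DMSO wells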
What viability, T/C was measured for each of the following?
Give the value in % but do not write % after it.

Name the reported viability, T/C value associated with the molecule CC1COCCN1c1cc(C2(S(C)(=N)=O)CC2)nc(-c2ccnc3[nH]ccc23)n1 (stereo not drawn) + Cc1[nH]c2ccc(F)cc2c1-c1nc2c3cccnc3c3ncccc3c2[nH]1 113

And the next one, C=CCn1c(=O)c2cnc(Nc3ccc(N4CCN(C)CC4)cc3)nc2n1-c1cccc(C(C)(C)O)n1 + Cc1[nH]c2ccc(F)cc2c1-c1nc2c3cccnc3c3ncccc3c2[nH]1 ? 87.8

And the next one, C=CCn1c(=O)c2cnc(Nc3ccc(N4CCN(C)CC4)cc3)nc2n1-c1cccc(C(C)(C)O)n1 + CN(C)c1ccc(Nc2c3ccc(NC(=O)CCN4CCCC4)cc3nc3cc(NC(=O)CCN4CCCC4)ccc23)cc1 ? 86.2

###

tested on: 885724-159-R-J1-PDC complex spheroid viability; assay: Anticancer human tumor 885724-159-R-J1-PDC cell line growth inhibition [GQUAD]; conditions: second compound 0.0316 µM; first compound 0.0316 µM; stronger effect = lower value;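 note: spheroids exposed to agents for seven days before readout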;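 for viability, T/C: percent of vehicle control viability where 100% = DMSO wells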
Reported Metric: viability, T/C (%)
Give the value in % but do not write % after it.

Request - read-out viability, T/C | tested on 885724-159-R-J1-PDC complex spheroid viability | compound CCCS(=O)(=O)Nc1ccc(F)c(C(=O)c2c[nH]c3ncc(-c4ccc(Cl)cc4)cc23)c1F + Cc1[nH]c2ccc(F)cc2c1-c1nc2c3cccnc3c3ncccc3c2[nH]1 98.7

And the next one, O=c1[nH]cc(F)c(=O)[nH]1 + Cc1cnc(CNC(=O)c2c(=O)c3ccc(N4CCCN(C)CC4)nc3n3c2sc2ccccc23)cn1 ? 108

And the next one, O=c1[nH]cc(F)c(=O)[nH]1 + Cc1[nH]c2ccc(F)cc2c1-c1nc2c3cccnc3c3ncccc3c2[nH]1 ? 101

And the next one, CCc1c2c(nc3ccc(O)cc13)-c1cc3c(c(=O)n1C2)COC(=O)[C@]3(O)CC + Cc1[nH]c2ccc(F)cc2c1-c1nc2c3cccnc3c3ncccc3c2[nH]1 ? 73.9

And the next one, C=CC(=O)N1CCN(c2nc(=O)n(-c3c(C)ccnc3C(C)C)c3nc(-c4c(O)cccc4F)c(F)cc23)C(C)C1 (stereo not given) + CN(C)c1ccc(Nc2c3ccc(NC(=O)CCN4CCCC4)cc3nc3cc(NC(=O)CCN4CCCC4)ccc23)cc1 ? 98.5
